# Test system: MS2 coat protein
# experiment.notes: apparent KD of MS2 coat protein; designed switch direction (-1 OFF switch, 1 ON switch): -1; higher = weaker reporter binding
# experimental.setup: input ligand: FMN 200 uM
Classification by apparent KD of MS2 coat protein follows these ranges: zone 1 = under 90 nM, zone 2 = from 90 nM up to 200 nM, zone 3 = 200 nM and over

Use the examples below as a reference point.
AGAAGUGCCGAGGAUAUCCAGGCAAUCUCGUUCGGAGAAGGCGGCACUUGAGGAUCACCCAAGUGCUCCAAAAG [Essoatxe] (Eterna round: R97, puzzle: Exclusion 6) | zone 1
GUCUGGCUAGGAUAUACAGUGUCCACAAGUUAGUUACCCUAACAUGAGGAUCACCCAUGUAGAAGGAGUGAGAA [Revebeed] (Eterna round: R96, puzzle: Exclusion 2) | zone 3
UCUCAGAUAGGAUAUACGUUGGCGGUAGAUCGGGUUUAAAUACAUGAGGAUCACCCAUGUAGAAGGAUCGAGGG [EX2 C.8] (Eterna round: R97, puzzle: Exclusion 2) | zone 2
UUCAUGUAAGGAUAUCGUGCAAGUUUCAAAAGAGGCUUGUGCGAGAAGGUACAUGAGGAUCACCCAUGUAGGUU [Omei Ex4 B9] (Eterna round: R97, puzzle: Exclusion 4) | zone 1

Note: place this sequence into its band. Item: GGAUCGAGUGUGAGGAUAUACCUAUGGAAACAUAGGUAGAAGGCACAUGAGGAUCACCCAUGUGUUCCCGGUCC [Mat - Exclusion 4 - Eli Mod - D16] (Eterna round: R97, puzzle: Brourd's mod of Exclusion 4)
zone 3

Note: place this sequence into its band. Item: ACCUCUGAGGAGGAUAUACAGUGCGAAAGGACAGUAGAAGGCUUCACAUGAGGAUCACCCAUGUCGAAUAGUGA [EX6 #79] (Eterna round: R97, puzzle: Exclusion 6)
zone 1

###

# System: MS2 coat protein
# experiment.notes: apparent KD of MS2 coat protein; designed switch direction (-1 OFF switch, 1 ON switch): 1; higher = weaker reporter binding
# experimental.setup: Eterna round: R98; input ligand: FMN 200 uM
Class 1: apparent KD of MS2 coat protein at least 20 nM. Class 0: apparent KD of MS2 coat protein below 20 nM.

Use the examples below as a reference point.
GUCCCAGUCACAGGAUAUGGCUCCGUAAUGGAGCCAGAAGGGUGAUAUUCAGAAAACACACAUGAGGAUCACCCAUGUAAUAAA [Enindiinso] | 1
GUAGCAUACAGAGGAUAUUCAAACCGGAAACGGACAUGAGGAUCACCCAUGUGGCGAAAGCCUAGGGAGAAGGCUGAAUGCUAC [Xeinanis 75 40] | 0

Does the reported apparent KD of MS2 coat protein for UGAUCGCUUGGAGGAUAUCCAACUAUCCUAGUUGGAGAAGGCCAAGCUACAGAGCUAAGCUUGGAAGUCACUUCGGAUCAACAC [pwkr ssNG1 F9.4.1] fall at or above the 20 nM mark?
1

Does the reported apparent KD of MS2 coat protein for AAAACAUACCGAGGAUAUUCAUUUUAUAAAUAAACAUGAGGAUCACCCAUGUGGCAAAAGCCUAGGGAGAAGGCGGAAUGCUAA [salish99_SSNG2_r2_121] fall at or above the 20 nM mark?
1

Does the reported apparent KD of MS2 coat protein for GCUUGCGACGCAGGAUAUGGGUGCCUGCACAUGAGCAUCAGCCAUGUUGAGGAACGGAUUACGUCUCAGAAGGGCGUGGCAGGC [United States 3 - Jieux - Same State NG 2] fall at or above the 20 nM mark?
0

Does the reported apparent KD of MS2 coat protein for CCUGACACUUGAGGAUAUGCUCAGGAUAACUGAGCAGAAGGCAGGAAAACCUGAGGAUCACCCAGGUAAGUCAGGAAUAAUAAA [Same State NG1 - A3C, U17G Submission 3B] fall at or above the 20 nM mark?
0

###

# Tested on: MS2 coat protein
# experiment.notes: apparent KD of MS2 coat protein; designed switch direction (-1 OFF switch, 1 ON switch): -1; higher = weaker reporter binding
# experimental.setup: input ligand: FMN 200 uM
measurement.type: apparent KD of MS2 coat protein (nM)
Record the value in nM, omitting the unit from your answer.

Below, 4 sequences whose answers are already recorded.
GUCAGCUCGUGAGGAUAUACAUCACUGCUUCGGCAGUGUAUUAAGAUCACAUGAGGAUCACCCAUGUAGAAGGUACGAGCUGAC [ENG2/2-C1] (Eterna round: R96, puzzle: Exclusion NG 2) | 180
AGGGUGGGAGGAUAUCCAAUAUAUGACAUGAGGAUCACCCAUGUUUCCACUCGUACCUCCGGAGAAGGCCCUCCCA [Ex5 #22] (Eterna round: R97, puzzle: Exclusion 5) | 21.5
UUAAUGGUUGUGAGGAUAUCGGAUAGAUAGAUAUUCGAGAAGGCACAUGAGGAUCACCCAUGUGUGAUUAGAAA [JR_BMEx4_Sub049] (Eterna round: R97, puzzle: Brourd's mod of Exclusion 4) | 260
CGGCCGUUUGUAAGGAUAUAACUAGUUGCGACCAGUUAGAAGGUACAUGAGGAUCACCCAUGUCUUCCAGUGGC [Eternabot (L1) Solution 76] (Eterna round: R97, puzzle: Brourd's mod of Exclusion 4) | 16.2

// moving on: another record for apparent KD of MS2 coat protein
Entry under test: CAGUACUGAGGAUAUACAUGAGGAUCACCCAUGUGUCCUAUAUUAGGAAACUAGGUAUGUAGAAGGCAGUACUG [Omei Ex3 Mod of Eli 4.27 v5] (Eterna round: R97, puzzle: Exclusion 3) . Its apparent KD of MS2 coat protein was 485

###

Examples of sequences with documented apparent KD of MS2 coat protein follow.
# Test system: MS2 coat protein
# experiment.notes: apparent KD of MS2 coat protein; designed switch direction (-1 OFF switch, 1 ON switch): -1; higher = weaker reporter binding
# experimental.setup: input ligand: FMN 200 uM
Record the value in nM, omitting the unit from your answer.

Below, 3 sequences whose answers are already recorded.
CGCCUACAUGAGGAUCACCCAUGUGAGGAUAUCCUGCGAGGAUCAAAAGAUCCUCGUGGGAGAAGGCGCUUGGA [Omei Ex1 B7] (Eterna round: R97, puzzle: Exclusion 1) | 18.7
CCUUAGUUAGGAUAUAUUAAGGCCUCUGUGAGCGCAGGGCAAUAGAAGGAACAUGAGGAUCACCCAUGUAUGGA [Eternabot (L2) Solution 98] (Eterna round: R97, puzzle: Exclusion 4) | 38.6
UUAAAAUAUGUAGGAUAUGCGUGGCGAAGCUAUGCAGAAGGACAUGAGGAUCACCCAUGUUCCUGCGUCCGCGUACGGAUGCAA [JL Eng1 1.21 mod 3] (Eterna round: R96, puzzle: Exclusion NG 1) | 14.8

Lab entry: MS2 coat protein assay, sequence GUCAGACGAGGAUAUAGAUUUAGAUACAUGAGGAUCACCCAUGUAUAGAUGUAUUUAGAUUUAGAAGGCGUCUGAC [E5/13-A3] (Eterna round: R97, puzzle: Exclusion 5) , apparent KD of MS2 coat protein = 231

Lab entry: MS2 coat protein assay, sequence GUAGAUCGAGUUAGGAUAUGAUUAAAAUUCGGAUAUCAGAAGGAACUUGAGGAUCACCCAAGUAUAGAUGAUUC [JR_BMEx4_Sub057] (Eterna round: R97, puzzle: Brourd's mod of Exclusion 4) , apparent KD of MS2 coat protein = 135

Lab entry: MS2 coat protein assay, sequence UAUUAACAAGUAAGAUCCCACAUGAGGAUCACCCAUGUGCUCGUCUUAUAAGGUACUGUGACGAAAGUCACGGUACC [Dup of Eli's R95 Sensor 3, v1 - 87] (Eterna round: R97, puzzle: Sensor, turn-off variant 1) , apparent KD of MS2 coat protein = 16.3

###

# Test system: K4 kissing-loop RNA reporter;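 also: bound reporter read as fluorescence of individual clusters on recovered sequencing chips by microscopy, with normalized cluster intensities fitted with a binding model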
# experiment.notes: apparent KD of K4 kissing-loop reporter; higher = weaker reporter binding
# experimental.setup: Eterna round: R107; input ligand: tryptophan 2.4 mM
Class t: apparent KD of K4 kissing-loop reporter at least 0.1 µM. Class f: apparent KD of K4 kissing-loop reporter below 0.1 µM.

Use the examples below as a reference point.
GGCAUAUGGGCAGGAUAUAGGCAGGUAGAGUGAUGUUCUUUCUGAAUAAUUCCAUCCUUCUACCUACUAGAAGGGCCCAUAUGCC | f
UUUCCAGUGAUGUUGGAGAAAACCGAGGAAGGAGCGGACUCUUGUCCAGGUAGGUCGCCUCGUCUCCCAUUGGCAGAGCGGACCC [Enlaonbian] | t
UCACAGUCCAAAGGAUAUUGAGUGCGCGUGCGAUUUAAGCUGAAGCCGUAGCUAGUGAUGUUAGCCCAAGAAGGUUGGUAGCCAG [theeternabot_exclusion_KL_FMN_B_16] | t
CAGCCUGGUCAGUGAUGUUGGCCGCAGGGAAAGGAUAUUGUGUUGGCAAGAAGGUUCGCUUGAUCGUUGGCCCAUGCAUGGGCCU [theeternabot_sameState_KL_FMN_A_44] | t
AAUCGCGAGUCAGAUACCAGUUGGCUCGAGAGUCAGUGAUGUUGAUGUAAAUCUUAGGCGAACCCUUGGCAGCUGUCACCAGUCC [theeternabot_sameState_KL_Theo_B_27] | t

Does the reported apparent KD of K4 kissing-loop reporter for AGGAUCCACCAGUGAUGUUGGAAAUACAUCAAGGAUAUGACGAAAGUCAGAAGGUGGUAGACUGGACAAAGUCCAGUUGGAUCCA [KL-SSFMN-A18] fall at or above the 0.1 µM mark?
f
